# credit: the RNAGym collection of RNA variant scans (doi:10.1126/science.aae0568)

B1: tRNA (parent)
chain: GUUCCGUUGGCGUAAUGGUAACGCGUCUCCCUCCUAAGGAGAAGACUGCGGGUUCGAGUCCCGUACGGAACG

- Variants of: B1
- procedureDetails: yeast fitness relative to wild type (ratio to wild type); higher = fitter; tRNA-Arg(CCU), competitive growth, 37 C, YPD
Variants at the floor of the assay were thinned out.
Listed variants paired with reported yeast fitness

Which yeast fitness value is on record for C4G U26C ?
0.993

Request the reported yeast fitness associated with C11U U19A
0.992

Param item = U8G C22U C62A ; retrieve measured yeast fitness.
0.559

Which yeast fitness reading was recorded for the variant G12A U19G A20G U35C A40U ?
≤ 0.5

Please look up its yeast fitness: C11U A40G C61G
≤ 0.5
